Test system: OVCAR8
Assay: drug sensitivity score (DSS2) on cancer cell count; higher = more sensitive; extreme values may be limits of the assay
Settings: co-cultured fibroblast: WI38; 72 h
valueType: drug sensitivity score

# compound, drug sensitivity score
records = [
    ("CCN(CC)Cc1ccc2cc(COC(=O)Nc3ccc(C(=O)NO)cc3)ccc2c1 [Givinostat]", "8.5 DSS"),
    ("COc1ccc(COc2cc3oc(=O)c4cc(C(C)O)ccc4c3cc2OC)cc1 (configuration not stated) [Palomid-529]", "1 DSS"),
    ("C=CC(=O)Nc1cc(Nc2nccc(-c3cn(C)c4ccccc34)n2)c(OC)cc1N(C)CCN(C)C [Osimertinib]", "0.6 DSS"),
    ("Nc1ncnc2c1nc(N)n2[C@@H]1O[C@H](CO)[C@@H](O)[C@H]1O [8-amino-adenosine]", "16.5 DSS"),
    ("NC(=O)Nc1cc(-c2cccc(F)c2)sc1C(=O)N[C@H]1CCCNC1 [AZD7762]", "9.2 DSS"),
    ("CN1CCN(C2CCC(n3cc(-c4ccc(Oc5ccccc5)cc4)c4c(N)ncnc43)CC2)CC1 (configuration not stated)", "11.4 DSS"),
]

Exercise: Tell me the measured drug sensitivity score of COc1ccc(S(=O)(=O)Nc2cccnc2Nc2ccc(O)cc2)cc1 [ABT-751] , please.
Key: 15.9 DSS

Exercise: Report drug sensitivity score for Cc1cc(Nc2cc(CN3CCOCC3)c3nc(C)c(Cc4ccc(Cl)cc4F)n3n2)n[nH]1 [Gandotinib] please.
Key: 12.1 DSS

Exercise: For COc1cc(N2CCC(N3CCN(C)CC3)CC2)ccc1Nc1ncnc(Nc2ccccc2S(=O)(=O)C(C)C)n1 [ASP3026] , what is its reported drug sensitivity score?
Key: 3.1 DSS

Exercise: Fill blank: measured drug sensitivity score of the compound Cc1cc([C@@H](C)Nc2ccccc2C(=O)O)c2nc(N3CCOCC3)cc(=O)n2c1 [AZD-6482] is ____.
Key: 0 DSS

Exercise: drug sensitivity score for CC[C@]1(O)C[C@H]2CN(CCc3c([nH]c4ccccc34)[C@@](C(=O)OC)(c3cc4c(cc3OC)N(C=O)[C@H]3[C@@](O)(C(=O)OC)[C@H](OC(C)=O)[C@]5(CC)C=CCN6CC[C@]43[C@@H]65)C2)C1 [Vincristine] ?
Key: 9.3 DSS

Exercise: Give the measured drug sensitivity score of CCS(=O)(=O)N1CC(CC#N)(n2cc(-c3ncnc4[nH]ccc34)cn2)C1 [Baricitinib] .
Key: 1.1 DSS

Exercise: Fill in: drug sensitivity score of Nc1cccc2c1C(=O)N(C1CCC(=O)NC1=O)C2=O (configuration not stated) [Pomalidomide] is ___
Key: 0 DSS

Exercise: Report drug sensitivity score for Cc1c(Cn2c(C)nc3c(C(=O)O)cc(N4CCOCC4)cc32)cccc1C(F)(F)F please.
Key: 0 DSS

Exercise: Dear colleague, I am looking for the recorded drug sensitivity score of the following compound: O=C(O)CC1CC(c2ccccc2)=NO1 (configuration not stated) [VGX-1027]
Key: 0 DSS

Exercise: Name the reported drug sensitivity score value associated with the compound COc1cc2ncnc(Oc3cccc(NC(=O)Nc4cc(C(C)(C)C(F)(F)F)on4)c3)c2cc1OC
Key: 0 DSS

Exercise: Please report the recorded drug sensitivity score for CNC(=O)c1ccccc1Nc1nc(Nc2ccc3c(c2OC)CCC[C@H](N2CCN(CCO)CC2)C3)ncc1Cl .
Key: 2.2 DSS

Exercise: Could you tell me which drug sensitivity score is on file for O=C(O)c1ccc(O)c2ncccc12 [IOX-1] ?
Key: 0.7 DSS

Exercise: Value lookup for drug sensitivity score; key = N#CC(c1ccnc(OCc2ccc(CN3CCOCC3)cc2)n1)c1nc2ccccc2s1 (configuration not stated) [Bentamapimod]
Key: 0 DSS

Exercise: Which drug sensitivity score value is on record for C[C@H]1O[C@@H](O[C@H]2[C@@H](O)C[C@H](O[C@H]3[C@@H](O)C[C@H](O[C@H]4CC[C@@]5(C)[C@H](CC[C@@H]6[C@@H]5C[C@@H](O)[C@]5(C)[C@@H](C7=CC(=O)OC7)CC[C@]65O)C4)O[C@@H]3C)O[C@@H]2C)C[C@H](O)[C@@H]1O [Digoxin] ?
Key: 11.6 DSS

Exercise: Consider the compound COCC1(CO)C(=O)C2CCN1CC2 (configuration not stated) [APR-246] and give its measured drug sensitivity score.
Key: 0 DSS

Exercise: What value of measured drug sensitivity score is listed for CC[C@@H]1C(=O)N(C)c2cnc(Nc3ccc(C(=O)N[C@H]4CC[C@H](N5CCN(CC6CC6)CC5)CC4)cc3OC)nc2N1C(C)C [Volasertib] ?
Key: 21.5 DSS

Exercise: What does the record list as drug sensitivity score for C[C@H](Nc1ncnc2nc[nH]c12)c1cc2cccc(Cl)c2c(=O)n1-c1ccccc1 [Duvelisib] ?
Key: 0 DSS

Exercise: Form field: reported drug sensitivity score of CNc1nc(Nc2cn(C(C)(C)C#N)nc2C)ncc1C(F)(F)F [GNE-0877]
Key: 1.8 DSS

Exercise: Given the compound CNc1ncc2cc(-c3cc(NC(=O)NCCC(C)(C)C)c(F)cc3C)c(C)nc2n1 , what is its reported drug sensitivity score?
Key: 15.7 DSS

Exercise: State the recorded drug sensitivity score for this entry: N#CC[C@H](C1CCCC1)n1cc(-c2ncnc3[nH]ccc23)cn1 [Ruxolitinib]
Key: 2.7 DSS

Exercise: Which drug sensitivity score value belongs to COc1cc(Nc2ncc(F)c(Nc3ccc4c(n3)N(COP(=O)(O)O)C(=O)C(C)(C)O4)n2)cc(OC)c1OC [Fostamatinib] ?
Key: 0 DSS

Exercise: What does the data say about its drug sensitivity score? Entry: Cn1ncc(Cl)c1-c1cc(C(=O)N[C@H](CN)Cc2cccc(F)c2)sc1Cl [Afuresertib]
Key: 0 DSS

Exercise: For the compound shown here, N#CC1(c2ccc(NC(=O)c3cccnc3NCc3ccncc3)cc2)CCCC1 [Apatinib] , give the reported drug sensitivity score.
Key: 4.9 DSS

Exercise: For Cc1c(-c2ccc(N3CCc4cccc(C(=O)Nc5nc6ccccc6s5)c4C3)nc2C(=O)O)cnn1CC12CC3CC(CC(C3)C1)C2 , what is its reported drug sensitivity score?
Key: 0 DSS

Exercise: Any idea what drug sensitivity score was measured for CCN(c1cc(-c2ccc(CN3CCOCC3)cc2)cc(C(=O)NCc2c(C)cc(C)[nH]c2=O)c1C)C1CCOCC1 [Tazemetostat] ?
Key: 0 DSS

Exercise: Item CC1(C)C(C(=O)Nc2ccc(S(=O)(=O)c3ccc(NC(=O)C4C(C)(C)C4(C)C)cc3)cc2)C1(C)C [BRD7116] has what recorded drug sensitivity score?
Key: 0 DSS

###

System: OVCAR8
Assay: drug sensitivity score (DSS2) on cancer cell count; higher = more sensitive; extreme values may be limits of the assay
Conditions: co-cultured fibroblast: WI38; 72 h
Classification field: enter MET for drug sensitivity score values not below 20 DSS, NOT MET for values below it.

Record excerpt, results attached:
# testSmiles, className
data = [
    ("CC(=O)O[C@@]12CO[C@@H]1C[C@H](O)[C@@]1(C)C(=O)[C@H](O)C3=C(C)[C@@H](OC(=O)[C@H](O)[C@@H](NC(=O)OC(C)(C)C)c4ccccc4)C[C@@](O)([C@@H](OC(=O)c4ccccc4)[C@H]21)C3(C)C", "MET"),
    ("NS(=O)(=O)OC[C@@H]1C[C@@H](n2ccc3c(N[C@H]4CCc5ccccc54)ncnc32)C[C@@H]1O", "NOT MET"),
    ("COc1cc(NS(C)(=O)=O)ccc1Nc1c2ccccc2nc2ccccc12", "NOT MET"),
    ("Cc1cnc(NC(=O)Nc2cc(Br)c(C)cc2OC[C@@H]2CNCCO2)cn1", "NOT MET"),
    ("COc1cc2ncnc(Nc3ccc(F)c(Cl)c3)c2cc1NC(=O)/C=C/CN1CCCCC1", "NOT MET"),
    ("CC1(COc2ccc3c(c2)ncn3-c2ccc3cccc(N4CCC(N)CC4)c3n2)COC1", "NOT MET"),
]

Exercise: Assess whether reported drug sensitivity score for CN1CCC(COc2cnc(-c3cccc(Cn4nc(-c5cccc(C#N)c5)ccc4=O)c3)nc2)CC1 sits at 20 DSS or higher.
Key: NOT MET

Exercise: Could you please find out whether O=C(CCCCCCC(=O)Nc1ccccc1)NO has drug sensitivity score that meets 20 DSS or exceeds it?
Key: MET

###

Test system: OVCAR8
Test: drug sensitivity score (DSS2) on cancer cell count; higher = more sensitive; extreme values may be limits of the assay
Details: co-cultured fibroblast: BJHTERT; 72 h
valueType: drug sensitivity score (DSS)
Number only, in DSS; omit the unit.

# compound, drug sensitivity score, DSS
measured = [
    ("Cc1ccc(-c2cc(C(F)(F)F)nn2-c2ccc(S(N)(=O)=O)cc2)cc1 [Celecoxib]", 0.1),
    ("Cc1[nH]c2ccccc2c1CCNCc1ccc(/C=C/C(=O)NO)cc1 [Panobinostat]", 28.1),
    ("O=c1sn(-c2cccc3ccccc23)c(=O)n1Cc1ccccc1 [Tideglusib]", 0.4),
    ("CN(C(=O)c1ccc(F)cc1C(F)(F)F)C1CCN(c2nnc(-c3ccnn3C)c3ccccc23)CC1 [Taladegib]", 0),
    ("CC#CC(=O)N1CC[C@@H](n2c(=O)n(-c3ccc(Oc4ccccc4)cc3)c3c(N)ncnc32)C1 [Tirabrutinib]", 0),
]

Exercise: Give the measured drug sensitivity score of C[C@]1(O)C[C@@H](c2nc(-c3ccc4ccc(-c5ccccc5)nc4c3)c3c(N)nccn32)C1 [Linsitinib] .
Key: 0

Exercise: Please give the measured drug sensitivity score for this compound: COc1cccc2c1C(=O)c1c(O)c3c(c(O)c1C2=O)C[C@@](O)(C(=O)CO)C[C@@H]3O[C@H]1C[C@H](N)[C@H](O)[C@H](C)O1 [Doxorubicin]
Key: 12.5

Exercise: # input compound: COc1cc2/c(=N/c3ccc(Br)cc3F)nc[nH]c2cc1OCC1CCN(C)CC1 [Vandetanib] ; wanted: its drug sensitivity score
Key: 0

Exercise: Entry C=CC(=O)N1CCC(Oc2cc3c(Nc4ccc(Cl)c(Cl)c4F)ncnc3cc2OC)CC1 [Poziotinib] : reported drug sensitivity score = ?
Key: 4

Exercise: # lookup: drug sensitivity score of O=c1[nH]cc(F)c(=O)[nH]1 [Fluorouracil]
Key: 1.3

Exercise: Give the measured drug sensitivity score of CO[C@H]1C[C@@H]2CC[C@@H](C)[C@@](O)(O2)C(=O)C(=O)N2CCCC[C@H]2C(=O)O[C@H]([C@H](C)C[C@@H]2CC[C@@H](OCCO)[C@H](OC)C2)CC(=O)[C@H](C)/C=C(\C)[C@@H](O)[C@@H](OC)C(=O)[C@H](C)C[C@H](C)/C=C/C=C/C=C/1C [Everolimus] .
Key: 8.4

Exercise: Recorded drug sensitivity score of CC(=O)O[C@H]1C(=O)[C@@]2(C)[C@H]([C@H](OC(=O)c3ccccc3)[C@]3(O)C[C@H](OC(=O)[C@H](O)[C@@H](NC(=O)c4ccccc4)c4ccccc4)C(C)=C1C3(C)C)[C@]1(OC(C)=O)CO[C@@H]1C[C@@H]2O [Paclitaxel] , please.
Key: 29.6

Exercise: Reported drug sensitivity score, compound COc1cc(Nc2ncc(F)c(Nc3ccc4c(n3)NC(=O)C(C)(C)O4)n2)cc(OC)c1OC [Tamatinib] : ____
Key: 0

Exercise: Given the entry Cc1cnc(Nc2ccc(OCCN3CCCC3)cc2)nc1Nc1cccc(S(=O)(=O)NC(C)(C)C)c1 [Fedratinib] , report its measured drug sensitivity score.
Key: 4.9

Exercise: Bench note: what drug sensitivity score did O=C(NOC[C@H](O)CO)c1ccc(F)c(F)c1Nc1ccc(I)cc1F show?
Key: 7.7
